assay: Solubility in organic solvents; format: physicochemical; details: THF
readout_name: solubility in THF

INPUT: I am curious: what solubility in THF value has been reported for CCCCC(CC)COc1ccc(-c2ccc(-c3ccc(-c4ccc(OCC(CC)CCCC)cc4)s3)s2)cc1 (centres unmarked) ?
OUTPUT: ~70,000 ppm
